Catalogue of %Inh values
Test system: IRAK3;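 also: KINOMEscan kinase panel screen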
Conditions: concentration: 1 μM, replicates: in singlicate; n = 1
Report the value in % with no unit label.

compound: COc1cc2c(cc1OCCN1CCNCC1)ncc1c3ccc(C#N)cc3[nH]c21
%Inh [%]: 88
//
compound: Cc1ccc(S(=O)(=O)Nc2ccc(Nc3nccc(Nc4cccc5[nH]ncc45)n3)cc2)cc1
%Inh [%]: 62
//
compound: CC(C)c1nc(-c2cccc(NS(=O)(=O)c3c(F)cccc3F)c2F)c(-c2ccnc(Nc3ccc(N4CCOCC4)nc3)n2)s1
%Inh [%]: 16
//
compound: COC(=O)Nc1nc2ccc(Oc3ccc(NC(=O)Nc4cc(C(F)(F)F)ccc4F)cc3)cc2n1C.Cl
%Inh [%]: 0
//
compound: Nc1n[nH]c2cnc(-c3ccccc3)cc12
%Inh [%]: 3
//
compound: O=C(Nc1cccc(-c2nn3ccccc3c2-c2ccnc(Nc3cccc(F)c3)n2)c1)c1c(F)ccc(F)c1Cl
%Inh [%]: 0
//
compound: Cc1cccc(NC(=O)Nc2ccc(Oc3ncnc4ccn(C)c34)cc2)c1
%Inh [%]: 0
//
compound: Nc1ncnc2c1nc(-c1ccccc1)n2-c1ccccc1
%Inh [%]: 40

stdin: Indicate its recorded %Inh; the compound in question is `Cn1cc(-c2ccc3c(c2)CCN3C(=O)Cc2cccc(Cl)c2)c2c(N)ncnc21`
stdout: 22

stdin: Indicate its recorded %Inh; the compound in question is `O=C(Nc1cccc(Oc2ccc3nc(NC(=O)C4CC4)cn3n2)c1)c1ccccc1C(F)(F)F`
stdout: 5

stdin: Indicate its recorded %Inh; the compound in question is `CN1CCN(CCCNc2nccc(-c3c(-c4ccc(F)cc4)nn4cc(C(F)(F)F)ccc34)n2)CC1`
stdout: 0

stdin: Indicate its recorded %Inh; the compound in question is `O=C(Nc1n[nH]c2cc(-c3ccoc3)ccc12)C1CC1`
stdout: 0

stdin: Indicate its recorded %Inh; the compound in question is `CN1CCN(Cc2cccc(-c3ccc4c(Nc5ccc(Oc6ccccc6)cc5)ccnc4c3)c2)CC1`
stdout: 0

stdin: Indicate its recorded %Inh; the compound in question is `Nc1ncc(-c2cccnc2)c2scc(-c3ccc4c(c3)CCN4C(=O)Cc3ccccc3)c12`
stdout: 17

stdin: Indicate its recorded %Inh; the compound in question is Cl.Cl.NCC(NCc1ccc(-c2ccnc3[nH]ccc23)s1)c1ccccc1 (centres unmarked)
stdout: 20

stdin: Indicate its recorded %Inh; the compound in question is `CNC(=O)c1ccccc1Nc1nc(Nc2ccc(N3CCOCC3)cc2)ncc1Cl.Cl`
stdout: 99.7

stdin: Indicate its recorded %Inh; the compound in question is `CCCCc1nn2ncccc2c1-c1ccnc(Nc2ccc(N3CCN(C)CC3)cc2)n1`
stdout: 79
